Test system: 786-0
Test: NCI tumour cell line growth inhibition, 48 h
Calls of active or inactive are those of the source. No stated cut-off is given here; in the data, active = GI50 up to about 1.1 µM and inactive = higher.
measured.attribute: GI50

| compound | measured.attribute | data.value |
| --- | --- | --- |
| O=C(CC(=O)c1cccc([N+](=O)[O-])c1)C(=O)Nc1ccccc1 | GI50 | > 100 µM (inactive) |
| C/C=C/C1(NS(=O)(=O)c2ccc(C)cc2)CCC(C(C)(C)C)CC1 (stereo unspecified) | GI50 | 19 µM (inactive) |
| COc1cc(C(=O)N(C(=S)OC23CC4CC(CC(C4)C2)C3)c2ccccc2)cc(OC)c1OC | GI50 | 25.6 µM (inactive) |
| CC1(C)CCCC2(C)C3=C(CCC12)C(=O)OC3 (stereo unspecified) | GI50 | > 100 µM (inactive) |
| COc1c(O)cc2c3c(ccnc13)NC=C2 | GI50 | 41.9 µM (inactive) |
| COc1cccc(C2c3cc4c(cc3OC(C)(N3CCCC3)C2C)OCO4)c1O (stereo unspecified) | GI50 | 4.71 µM (inactive) |
| C/C(=N\NS(=O)(=O)c1ccccc1)c1ccc(Cl)c(Cl)c1 | GI50 | 82.2 µM (inactive) |
| Cc1cc2c(C=O)n[nH]c2c(C#N)c1C | GI50 | > 100 µM (inactive) |
| C[Si](C)(C)/C=C\CCCN1C(=O)CCC1=O | GI50 | > 100 µM (inactive) |
| CN(C)CC[N+]1=Nc2cccc3cccc(c23)N1 | GI50 | 55.1 µM (inactive) |
| CCN(CC)CCn1c2cc3c(cc2c(=O)c2cccnc21)OCO3 | GI50 | 4.45 µM (inactive) |
